Ref: PubChem BioAssay

# test.system: Short transient receptor potential channel 4 (Mus musculus) (UniProt Q9QUQ5)
# protocol.notes: calcium flux activators in TRPC4/5HT1a cells, counter-screen for TRPC4 activator project, cell-based, second counter screen, HEK293 TRPC4/5HT1a, Fluo-4 (AID 434977)
# experimental.conditions: Fluo-4 calcium flux, at 10 µM
Calls of active or inactive are those of the source.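 How the source made its calls: active means calcium signal rise above buffer-control mean plus 5 SD in both duplicates, and also a hit in the primary screen; inactive means the rest.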
Labels: 1 (yes) = active, 0 (no) = inactive

compound=Fc1ccc(-n2cc(CNCCc3cccnc3)c(-c3ccccc3Cl)n2)cc1 cat="0 (no)"
compound=Cc1ccc(Oc2ccccc2/C=N/O)cc1 cat="0 (no)"
compound=CN(Cc1cnn(C)c1)C(=O)c1ccc(OC2CCN(CCc3ccccc3)CC2)cc1 cat="0 (no)"
compound="Cc1cccc(CN2CCCC(C(=O)Nc3ccccc3Oc3cccnc3)C2)c1 (centres undefined)" cat="0 (no)"
compound="CC(NC(=O)c1ccccc1NC(=O)CN1CCc2ccccc2C1)c1ccccc1 (centres undefined)" cat="0 (no)"
compound="COc1ccc(C(CCNCc2ccc(N(C)C)cc2)c2ccccc2)cc1 (centres undefined)" cat="1 (yes)"
compound=COc1ccc(NS(=O)(=O)c2ccc3ccccc3c2)c2ncccc12 cat="0 (no)"
compound="CN(C)C(CNC(=O)c1cccc(S(=O)(=O)N(C)C)c1)c1ccccc1 (centres undefined)" cat="0 (no)"
compound=CCCCN(CC)CCNC(=O)c1ccc2c(Cl)c3c(nc2c1)CCC3 cat="1 (yes)"
compound=CC(C)C(=O)Nc1ccc(C(=O)Nc2nnc(C(C)(C)C)s2)cc1 cat="0 (no)"
compound="CCCCCOc1ccc2oc(=O)c3c(c2c1)CCCN3C(=O)CN1CCCC(C(=O)OCC)C1 (centres undefined)" cat="0 (no)"
compound="CC(/C=C1\\SC(=S)N(C(C(=O)O)C(C)C)C1=O)=C\\c1ccccc1 (centres undefined)" cat="0 (no)"
compound=CCCn1c(=O)c2ccccc2n2c(SCCOc3ccccc3)nnc12 cat="0 (no)"
compound=COc1ccc2sc(N(CCCN(C)C)C(=O)c3ccc(S(=O)(=O)N4CCCc5ccccc54)cc3)nc2c1 cat="0 (no)"
compound=COc1ccc(-c2cc(C(F)(F)F)nc(N3CCN(C)CC3)n2)cc1 cat="0 (no)"
compound=Cc1cccc(N2CCN(C(=O)C3(S(=O)(=O)c4ccc(Cl)cc4)CC3)CC2)c1C cat="0 (no)"
compound=CCCCc1ccc(NC(=O)CSc2nnc(C)c(=O)n2N)cc1 cat="0 (no)"
compound=CN(C)c1ccc(/C=C/C(=O)c2c(O)c3ccccc3oc2=O)cc1 cat="1 (yes)"
compound=CCOc1cc(O)c(-c2[nH]ncc2-c2nc(C)cs2)cc1CC cat="0 (no)"
compound="CCOC(=O)c1c(NC(=O)C2CC(Cl)=CCC2C(=O)O)sc2c1CCCCC2 (centres undefined)" cat="0 (no)"
compound=Cc1ccc(-c2nn(-c3ccccc3)cc2C(=O)Nc2ccc(C(=O)O)cc2)cc1 cat="0 (no)"
compound=CC(C)C1=Nc2cccc3cccc(c23)N1 cat="0 (no)"
compound="O=C(O)C1C2C=CC(C2)C1C(=O)N1CCN(C/C=C/c2ccccc2)CC1 (centres undefined)" cat="1 (yes)"
compound=O=C(COc1ccc(Br)cc1Cl)c1ccc[nH]1 cat="0 (no)"
compound=CCn1c(=O)c(C(=O)NNC(=O)c2ccccc2F)c(O)c2ccccc21 cat="1 (yes)"
compound=CSc1ccc(/C=N\NC(=O)CC(=O)NC(C)C)cc1 cat="0 (no)"
compound=O=C(Nc1cnn(C23CC4CC(CC(C4)C2)C3)c1)c1cnn2cccnc12 cat="0 (no)"
compound="OC(COc1ccccc1)CN1C2=NCCCN2c2ccccc21 (centres undefined)" cat="0 (no)"
compound=CC(C)n1c(SCC(=O)N2c3ccccc3Sc3ccccc32)nc2c1c(=O)n(C)c(=O)n2C cat="0 (no)"
compound="O=C(Nc1ccccc1Oc1cccnc1)C1CCCN(Cc2cccc(Cl)c2)C1 (centres undefined)" cat="0 (no)"
compound=COc1cc(/C=C2\SC(=S)N(NS(=O)(=O)c3ccc(C)cc3)C2=O)cc(OC)c1OC cat="0 (no)"
compound=CN(Cc1ccccc1)C(=O)CSc1nnc(-c2ccco2)n1-c1ccccc1 cat="0 (no)"
compound=NCCNC(=O)c1c(NC(=O)c2ccccc2)sc2c1CCCC2 cat="0 (no)"
compound="CN(C)C(CNC(=O)c1cccc(C(F)(F)F)c1)c1ccco1 (centres undefined)" cat="0 (no)"
